Tested on: HBsAg in HepG2.2.15 cells
Assay: HBsAg assay: inhibition of HBsAg in HepG2.2.15 cells (chemiluminescence immunoassay of supernatant)
Assay type: cell-based, hepatitis B virus
Conditions: read-out: sAg EC50; HepG2.2.15 cells, supernatant collected at day 6 after exposure, HBsAg CLIA
pEC50: −log10 of the molar value.
pEC50 vs 7: at or above is YES, below is NO.

- Compound: "CCC1c2cc(F)c(OC)cc2CN1c1ccnc(-c2ncccn2)n1 (single isomer, unassigned) [Example 65]"
  Class Assignment: "NO"
- Compound: "CCC1c2cc(F)c(OC)cc2CN1c1cnc(C(=O)O)nc1 (single isomer, unassigned) [Example 99]"
  Class Assignment: "NO"
- Compound: "CCC1c2cc(F)c(OC)cc2CN1c1ccnc(C(=O)NC)n1 (single isomer, unassigned) [Example 109]"
  Class Assignment: "NO"
- Compound: "CCC1c2ccccc2CCN1c1cnc(-c2ncccn2)nc1 (single isomer, unassigned) [Example 12]"
  Class Assignment: "NO"
- Compound: "CCC1c2cc(F)c(OC)cc2CN1c1cnc(C(=O)NS(C)(=O)=O)nc1 (single isomer, unassigned) [Example 103]"
  Class Assignment: "NO"
- Compound: "CCC1c2cc(F)c(OC)cc2CN1c1nc(-c2ncccn2)ncc1C (single isomer, unassigned) [Example 68]"
  Class Assignment: "YES"
- Compound: "CCC1c2ccc(F)c(F)c2CCN1c1cnc(-c2ncccn2)nc1 (single isomer, unassigned) [Example 33]"
  Class Assignment: "NO"
- Compound: "CCC1c2cc(F)c(OC)cc2CN1c1nc(-c2ncccn2)ncc1OC (single isomer, unassigned) [Example 73]"
  Class Assignment: "NO"
- Compound: "CCC1c2cc(F)c(OC)cc2CN1c1ccnc(-c2ncccn2)n1 (single isomer, unassigned) [Example 64]"
  Class Assignment: "YES"
- Compound: "CCC1c2cc(F)c(OC)cc2CCN1c1ccnc(-c2ncccn2)n1 (single isomer, unassigned) [Example 129]"
  Class Assignment: "YES"
